// data source = ChEMBL document CHEMBL4339220

Hi there, I'd appreciate the recorded selectivity ratio for every entry that follows.
Experiment: Selectivity index, ratio of CC50 for African green monkey Vero B cells to EC50 for Dengue virus type 2 NGC infected in African green monkey Vero B cells
Assay type: toxicity
Details: read-out: Ratio CC50/EC50

Please review the entries below; each comes with its answer.
{"smiles": "NS(=O)(=O)c1ccc(Nc2nc(N3CCOCC3)nc3c2CN(CCOc2ccccc2)C3=O)cc1", "selectivity ratio": "> 8"}
{"smiles": "CCCCCOCc1c(Nc2ccc(S(N)(=O)=O)cc2)nc(N2CCOCC2)nc1C(=O)NCCOc1ccccc1", "selectivity ratio": "> 46"}
{"smiles": "OCCNc1nc(Nc2cccc(O)c2)c2nc[nH]c2n1", "selectivity ratio": "> 24"}

Give one value of selectivity ratio per listed compound.
1. CCCCCOCc1c(Nc2ccc(S(N)(=O)=O)cc2)nc(N2CCOCC2)nc1C(=O)NCc1ccccc1
2. NS(=O)(=O)c1ccc(Nc2nc(N3CCOCC3)nc3c2CN(Cc2ccccc2)C3=O)cc1
3. Oc1cccc(Nc2nc(NCCOc3ccccc3)nc3[nH]cnc23)c1

Given back:
["> 88", "> 4.8", 6.9]

Quick one: give me selectivity ratio for each item below, same order please.
1. NC(=O)c1ncn([C@@H]2O[C@H](CO)[C@@H](O)[C@H]2O)n1
2. CCCCCOCc1c(Nc2cccc(O)c2)nc(N2CCOCC2)nc1C(=O)NCc1ccc(C(F)(F)F)cc1
3. Oc1cccc(Nc2nc(N3CCOCC3)nc3[nH]cnc23)c1
4. O=C(NCCOc1ccccc1)c1nc(N2CCOCC2)nc(Nc2cccc(O)c2)c1CO
5. O=C(NCCc1ccccc1)c1nc(N2CCOCC2)nc(Nc2cccc(O)c2)c1CO
6. CCCCCOCc1c(Nc2cccc(O)c2)nc(N2CCOCC2)nc1C(=O)NCc1ccccc1
7. O=C1c2nc(N3CCOCC3)nc(Nc3cccc(O)c3)c2CN1CCOc1ccccc1

Given back:
["> 34", 3, 3, 1.2, 3.1, 1.9, "> 4.9"]
